Target Or System: T1, IRE1α lumenal domain (IRE1αLD) (human, UniProt O75460 24-443)
T1 sequence: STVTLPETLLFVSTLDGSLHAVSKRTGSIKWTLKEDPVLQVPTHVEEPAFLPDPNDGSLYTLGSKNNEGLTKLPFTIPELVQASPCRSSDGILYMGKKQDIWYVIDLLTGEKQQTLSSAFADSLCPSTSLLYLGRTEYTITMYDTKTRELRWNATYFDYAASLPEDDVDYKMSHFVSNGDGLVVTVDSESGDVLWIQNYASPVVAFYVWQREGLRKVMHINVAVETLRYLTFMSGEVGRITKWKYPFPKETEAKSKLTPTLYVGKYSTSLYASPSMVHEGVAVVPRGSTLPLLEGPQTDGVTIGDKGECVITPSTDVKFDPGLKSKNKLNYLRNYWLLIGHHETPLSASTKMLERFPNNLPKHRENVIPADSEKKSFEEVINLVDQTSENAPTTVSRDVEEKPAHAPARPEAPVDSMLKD
Test Summary: […]
Ends that are not written are not given here.
Quantity Measured: Ki (µM)
Answer format: numeric, µM implied, no suffix.

YWLLIGHHETPL (not fully specified (N-terminus)) [IRE1α_(Y358-L369) peptide] has a reported Ki of 220

Source of measurements: paper doi:10.1101/2023.06.20.545791
